Ref: PubChem BioAssay (NCI)

Below, each entry is listed with its recorded GI50.
Test system: IGROV1 ovarian
Experiment: NCI tumour cell line growth inhibition, 48 h

- CHEMICAL STRUCTURE: "COc1ccc(NC(=O)Nc2ccccc2CNc2nc(Nc3ccc(OCCN4CCCC4)cc3)ncc2Cl)cc1"
  GI50: "0.894 µM"
- CHEMICAL STRUCTURE: "C=CCNCCN1C(=O)c2ccc3c4c(ccc(c24)C1=O)C(=O)N(CCNCC=C)C3=O"
  GI50: "0.504 µM"
- CHEMICAL STRUCTURE: "O=C(NCCCN1CCC(N2CCCCC2)CC1)C1=Cc2cc(Br)ccc2OC1"
  GI50: "15.9 µM"
- CHEMICAL STRUCTURE: "O=C1/C(=C\\c2ccc(Cl)cc2)CCOc2c1ccc1ccccc21"
  GI50: "55.3 µM"
- CHEMICAL STRUCTURE: "COc1cc(C)cc2c1[nH]c1ccccc12"
  GI50: "14.8 µM"
- CHEMICAL STRUCTURE: "COc1cccc(/C(COc2ccc3c(c2)oc(=O)c2ccccc23)=N\\O)c1"
  GI50: "28.4 µM"
- CHEMICAL STRUCTURE: "Cn1cc(C2=C(Oc3ccccc3)C(=O)NC2=O)c2ccccc21"
  GI50: "> 25 µM"
- CHEMICAL STRUCTURE: "Cc1ncc(C(=O)Nc2ccc(CN3CCN(C)CC3)c(C(F)(F)F)c2)cc1C#Cc1c(N)ncc2ccc(F)cc12"
  GI50: "0.301 µM"
- CHEMICAL STRUCTURE: "CN1CCN(c2ccc3[nH]c(C4=C(O)c5nc(CCl)n(C)c5C(=O)C4=O)nc3n2)CC1"
  GI50: "24.5 µM"
- CHEMICAL STRUCTURE: "O=C1NC(=NCc2ccccc2Br)S/C1=C\\c1ccc2ncccc2c1"
  GI50: "7.68 µM"
- CHEMICAL STRUCTURE: "CS(=O)(=O)CCN(CC#N)Cc1ccc(-c2ccc3ncnc(Nc4ccc(OCc5cccc(F)c5)c(Cl)c4)c3c2)o1"
  GI50: "6.25 µM"
- CHEMICAL STRUCTURE: "Clc1ccc(Nc2nnc(CNc3ccccc3)c3ccccc23)cc1"
  GI50: "1.93 µM"
- CHEMICAL STRUCTURE: "COc1cc2c(/C=C3\\C(=O)N(C)c4ccc(O)cc43)c[nH]c2cc1C"
  GI50: "3.7 µM"

###

System: UO-31 renal
Assay: NCI tumour cell line growth inhibition, 48 h; in the data active means GI50 below about 0.43 µM; inactive means the rest
Possible outcomes: T for active, F for inactive

- MOLECULE: "O=C1NC(=NCc2ccccc2Br)S/C1=C\\c1ccc2ncccc2c1"
  TARGET OF ASSAY: "UO-31 renal"
  GROUP LABEL: "F"
- MOLECULE: "O=C(/C=C/c1cccs1)c1ccc(Cl)cc1Cl"
  TARGET OF ASSAY: "UO-31 renal"
  GROUP LABEL: "F"
- MOLECULE: "Cc1cc(Nc2nc(-c3ccc(F)cc3)nc3ccccc23)n[nH]1"
  TARGET OF ASSAY: "UO-31 renal"
  GROUP LABEL: "F"
- MOLECULE: "COc1cccc2c1C(=O)c1c(O)c3c(c(O)c1C2=O)C[C@@](O)(C(C)=O)C[C@@H]3O[C@H]1C[C@H](N)[C@H](O)[C@H](C)O1"
  TARGET OF ASSAY: "UO-31 renal"
  GROUP LABEL: "T"
- MOLECULE: "Oc1c(I)cc(I)cc1CNCCN(Cc1ccccn1)Cc1ccccn1"
  TARGET OF ASSAY: "UO-31 renal"
  GROUP LABEL: "F"
- MOLECULE: "[C-]#[O+].[C-]#[O+].[C-]#[O+].[C-]#[O+].[O-]C(c1ccccc1[PH+]1OC(C(F)(F)F)(C(F)(F)F)c2ccccc21)(C(F)(F)F)C(F)(F)F.[Re] (stereo not given)"
  TARGET OF ASSAY: "UO-31 renal"
  GROUP LABEL: "F"
- MOLECULE: "COc1cccc(/C(COc2ccc3c(c2)oc(=O)c2ccccc23)=N\\O)c1"
  TARGET OF ASSAY: "UO-31 renal"
  GROUP LABEL: "F"
- MOLECULE: "O=c1oc2ccc(Br)cc2c(=O)n1-c1ccc(Br)cc1F"
  TARGET OF ASSAY: "UO-31 renal"
  GROUP LABEL: "F"
- MOLECULE: "CC(C)(O)/C=C/C(=O)[C@](C)(O)[C@H]1[C@H](O)C[C@@]2(C)[C@@H]3CC=C4[C@@H](C=C(O)C(=O)C4(C)C)[C@]3(C)C(=O)C[C@]12C"
  TARGET OF ASSAY: "UO-31 renal"
  GROUP LABEL: "T"
- MOLECULE: "CCN1C(C)(C)CC(Oc2ccc(C(=O)Nc3ccc(NC(=O)Nc4cc(C(C)(C)C)on4)cc3)nc2)CC1(C)C"
  TARGET OF ASSAY: "UO-31 renal"
  GROUP LABEL: "F"

###

Test system: OVCAR-3 ovarian
Test: NCI tumour cell line growth inhibition, 48 h; in the data active = GI50 below about 0.43 µM; inactive = the rest
Possible outcomes: active, inactive

- MOLECULE: "COc1ccc(NC(=O)Nc2ccccc2CNc2nc(Nc3ccc(OCCN4CCCC4)cc3)ncc2Cl)cc1"
  TARGET OF ASSAY: "OVCAR-3 ovarian"
  GROUP LABEL: "inactive"
- MOLECULE: "COc1cc(C2CC(c3cccc(Nc4ccnc5cc(Cl)ccc45)c3)=NN2C=O)cc(OC)c1OC (centres undefined)"
  TARGET OF ASSAY: "OVCAR-3 ovarian"
  GROUP LABEL: "active"
- MOLECULE: "O=c1[nH]cnc2c1ccn2C1OC(CO)C(O)C1O (centres undefined)"
  TARGET OF ASSAY: "OVCAR-3 ovarian"
  GROUP LABEL: "inactive"
- MOLECULE: "CC(=O)OCc1cnc2c3c(nc4ccccc4c13)C(=O)c1cccnc1-2"
  TARGET OF ASSAY: "OVCAR-3 ovarian"
  GROUP LABEL: "active"

###

System: MALME-3M melanoma
Experiment: NCI tumour cell line growth inhibition, 48 h; in the data active = GI50 below about 0.43 µM; inactive = the rest
Possible outcomes: active, inactive

- CHEMICAL STRUCTURE: "Oc1c(I)cc(I)cc1CNCCN(Cc1ccccn1)Cc1ccccn1"
  GROUP LABEL: "inactive"
- CHEMICAL STRUCTURE: "C=CCNCCN1C(=O)c2ccc3c4c(ccc(c24)C1=O)C(=O)N(CCNCC=C)C3=O"
  GROUP LABEL: "active"
- CHEMICAL STRUCTURE: "CCCN1CCN(c2ccc3nc(-c4ccc5nc(-c6ccc(C(F)(F)F)cc6)[nH]c5c4)[nH]c3c2)CC1"
  GROUP LABEL: "inactive"
- CHEMICAL STRUCTURE: "CCN(CC)c1ccc(/C=N/NC(=O)c2ccc(S(C)(=O)=O)cc2)c(O)c1"
  GROUP LABEL: "inactive"
- CHEMICAL STRUCTURE: "Cn1cc(C2=C(Oc3ccccc3)C(=O)NC2=O)c2ccccc21"
  GROUP LABEL: "inactive"
- CHEMICAL STRUCTURE: "CCC(=O)c1c(C(F)(F)F)n([O-])c2cc(N3CCNCC3)c(F)cc2[n+]1=O"
  GROUP LABEL: "active"
- CHEMICAL STRUCTURE: "O=C1Nc2ccccc2/C1=C\\c1c[nH]c2ccc(Br)cc12"
  GROUP LABEL: "inactive"
- CHEMICAL STRUCTURE: "Cn1cc(-c2nonc2-c2cn(C)c3ccc(F)cc23)c2ccccc21"
  GROUP LABEL: "inactive"
- CHEMICAL STRUCTURE: "O=C(NCCCN1CCC(N2CCCCC2)CC1)C1=Cc2cc(Br)ccc2OC1"
  GROUP LABEL: "inactive"
- CHEMICAL STRUCTURE: "O=C(OCc1nc2nc(Cl)nc(N3CCOCC3)c2[nH]1)n1ccnc1"
  GROUP LABEL: "inactive"
